test.method.notes: Kinetic aqueous solubility of the compound in DPBS at pH 7.4 at 100 ug/ml measured after 6 hrs by LC-MS/MS analysis
Type: physicochemical
experimental.parameters: DPBS, pH 7.4, dose 100 µg/ml, read-out: Kinetic_solubility
property.label: solubility kinetic at 6 h (µg/mL)

smiles.entry: O=c1cc(C(F)(F)F)[nH]c2cc(C(F)(F)F)cc(Nc3ccc(F)cn3)c12
unit.string: µg/mL
assay.result: 1

----------
Parameter: MIC. Scope: all listed entries.
Test system: Staphylococcus aureus
test.method.notes: Antibacterial activity against methicillin-resistant Staphylococcus aureus COL assessed as inhibition of bacterial growth incubated for 24 hrs by CLSI based method
Assay type: functional

smiles.entry: O=c1cc(C(F)(F)F)[nH]c2cc(C(F)(F)F)cc(N[C@H]3CC[C@H](C(F)(F)F)CC3)c12
relation.qualifier: <
MIC (µg/mL): 0.06
--
smiles.entry: FC(F)(F)c1ccc(Nc2cc(C(F)(F)F)nc3cc(C(F)(F)F)ccc23)nc1
relation.qualifier: =
MIC (µg/mL): 0.25
--
smiles.entry: FC(F)(F)c1ccc2c(Nc3ccc(Cl)c(Cl)c3)cc(C(F)(F)F)nc2c1
relation.qualifier: =
MIC (µg/mL): 0.25
--
smiles.entry: O=c1cc(C(F)(F)F)[nH]c2cc(C(F)(F)F)cc(Nc3ccc(C(F)(F)F)cn3)c12
relation.qualifier: <
MIC (µg/mL): 0.06

----------
test.method.notes: Cytotoxicity against sheep erythrocytes assessed as reduction in cell viability
Assay type: toxicity, cell-based, Ovis aries, Erythrocyte

smiles.entry: O=c1cc(C(F)(F)F)[nH]c2cc(C(F)(F)F)cc(Nc3ccc(F)c(F)c3)c12
CC50: > 32 mg/L
--
smiles.entry: O=c1cc(C(F)(F)F)[nH]c2cc(C(F)(F)F)cc(Nc3ccc(Cl)c(Cl)c3)c12
CC50: > 32 mg/L
--
smiles.entry: O=c1cc(C(F)(F)F)[nH]c2cc(C(F)(F)F)cc(Nc3ccc(C(F)(F)F)cn3)c12
CC50: > 32 mg/L

----------
Test system: Erythrocyte
test.method.notes: Hemolytic activity in sheep erythrocytes at 32 ug/ml incubated for 1 hr
Assay type: toxicity, cell-based, Ovis aries
experimental.parameters: dose 32 µg/ml

smiles.entry: Fc1cc2nc(C(F)(F)F)cc(Nc3ccc(C(F)(F)F)cn3)c2cc1F
Activity: Toxic

smiles.entry: O=c1cc(C(F)(F)F)[nH]c2cc(C(F)(F)F)cc(N[C@H]3CC[C@H](C(F)(F)F)CC3)c12
Activity: Non-Toxic

smiles.entry: Fc1ccc2c(Nc3ccc(C(F)(F)F)cn3)cc(C(F)(F)F)nc2c1
Activity: Non-Toxic

smiles.entry: O=c1cc(C(F)(F)F)[nH]c2cc(F)cc(Nc3ccc(C(F)(F)F)cn3)c12
Activity: Non-Toxic

smiles.entry: O=c1cc(C(F)(F)F)[nH]c2cc(C(F)(F)F)cc(Nc3ccc(F)c(F)c3)c12
Activity: Non-Toxic

smiles.entry: O=c1cc(C(F)(F)F)[nH]c2cc(C(F)(F)F)cc(Nc3ccc(C(F)(F)F)cn3)c12
Activity: Non-Toxic

smiles.entry: O=c1cc(C(F)(F)F)[nH]c2cc(C(F)(F)F)cc(Nc3ccc(Cl)c(Cl)c3)c12
Activity: Non-Toxic

Data origin, for the record: ChEMBL document CHEMBL5150021
